These data points were gathered from patent US20230346938A1.

Target: T1, soluble CD19-HSA fusion protein (CD19 extracellular domains fused to human serum albumin) (human, UniProt P15391 20-291)
T1 construct: extracellular domain; also called recombinant CD19 antigen; not shown: human serum albumin
T1 sequence (looked up): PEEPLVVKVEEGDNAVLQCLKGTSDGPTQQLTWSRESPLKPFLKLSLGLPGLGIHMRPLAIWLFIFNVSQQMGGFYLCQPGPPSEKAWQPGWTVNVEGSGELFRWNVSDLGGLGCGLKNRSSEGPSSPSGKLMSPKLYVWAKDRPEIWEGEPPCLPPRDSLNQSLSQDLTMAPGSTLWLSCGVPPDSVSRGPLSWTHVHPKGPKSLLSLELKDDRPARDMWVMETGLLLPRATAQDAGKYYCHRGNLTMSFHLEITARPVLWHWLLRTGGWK
Experiment: BLI (ForteBio Octet RED384), IgG on AHC sensors, 100 nM soluble CD19-HSA, 1:1 model

[
  {
    "binder": "Antibody 4 (antibody, V domains shown, Human IgG produced in Adimab yeast, purified on Protein A; Has the VH and VL of #4 scFv; also called CD19 Antibody 4) VH: QVQLVESGGGVVQPGRSLRLSCAASGFTFSSYGMHWVRQAPGKGLEWVALIWYDGSNKYYADSVKGRFTISRDNSKNTLYLQMNSLRAEDTAVYYCAKPVEGLLRGFDYWGQGTLVTVSS VL: EIVLTQSPGTLSLSPGERATLSCRASQSVSSSYLAWYQQKPGQAPRLLIYGASSRATGIPDRFSGSGSGTDFTLTISRLEPEDFAVYYCQQVDSLHPFTFGGGTKVEIK",
    "kon [M⁻¹ s⁻¹]": 23500
  },
  {
    "binder": "Antibody 2 (antibody, V domains shown, Human IgG produced in Adimab yeast, purified on Protein A; also called CD19 Antibody 2) VH: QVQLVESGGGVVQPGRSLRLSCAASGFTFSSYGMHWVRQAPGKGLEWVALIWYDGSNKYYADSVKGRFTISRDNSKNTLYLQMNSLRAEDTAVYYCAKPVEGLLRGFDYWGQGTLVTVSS VL: EIVLTQSPGTLSLSPGERATLSCRASQSVSSSYLAWYQQKPGQAPRLLIYGASSRATGIPDRFSGSGSGTDFTLTISRLEPEDFAVYYCQQAGAVPITFGGGTKVEIK",
    "kon [M⁻¹ s⁻¹]": 61500
  },
  {
    "binder": "Antibody 15 (antibody, V domains shown, Human IgG produced in Adimab yeast, purified on Protein A; Has the VH and VL of #15 scFv; also called CD19 Antibody 15) VH: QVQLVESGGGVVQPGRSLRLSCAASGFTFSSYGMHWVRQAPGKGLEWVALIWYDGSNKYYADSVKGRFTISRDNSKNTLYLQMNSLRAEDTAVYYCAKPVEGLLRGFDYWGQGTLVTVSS VL: EIVLTQSPGTLSLSPGERATLSCRASQSVSSSYLAWYQQKPGQAPRLLIYGASRRATGIPDRFSGSGSGTDFTLTISRLEPEDFAVYYCQQAGIPPYTFGGGTKVEIK",
    "kon [M⁻¹ s⁻¹]": 69800
  }
]
